- Test system: SF-268 CNS
- assay_procedure: NCI-60 one-dose screen, 48 h (100 = growth as untreated, 0 = no growth, -100 = all killed)
- details: 10 µM unless noted
Compounds without any hit were thinned out: in the full panel of roughly 83,000, 20% have a hit.

compound	growth [%]
NC(N)=Nc1ccc(Oc2cccc(Nc3ccc(Br)c(C(F)(F)F)c3)c2)cn1	7.02
C#Cc1nc(C(=O)NCCC(=O)Nc2ccc(NC(=O)c3ccc(/C=C/C(=O)c4nccn4C)cc3)cc2)cs1	33.4
COc1cc2oc(-c3cccc(N)c3)cc(=O)c2c(OC)c1OC	104
Nc1nc(-c2cccc([N+](=O)[O-])c2)c(N=Nc2ccc([N+](=O)[O-])cc2Cl)s1	20.5
CCCCCc1ccc(S(=O)(=O)Nc2cccc(-c3csc(NC(=O)CCCCCN4CCN(CCO)CC4)n3)c2)cc1	83.2
CC(=O)c1ccc(Nc2nc(SCC(C)C)nc(-c3ccccc3)c2C#N)cc1	72
CCOc1ccccc1NC1=C(Cl)C(=O)c2nc(C)ccc2C1=O	32.8
NC(N)=Nc1ccc(Oc2cccc(Nc3cccc(C(F)(F)F)c3)c2)cn1	49.3
Brc1ccccc1/C=N/Nc1nc(N/N=C/c2ccccc2Br)nc(N2CCOCC2)n1	102
CC1=NC2=NN3C(=NN2C(c2ccccc2)=C1)N=NC(c1ccc(Br)cc1)=C3c1ccc(Br)cc1	102
O=C(CN1CCN(c2cc(=O)[nH]c3ccc(F)cc23)CC1)Nc1ccc(Cl)cc1	38.3
COc1cccc(C(=O)Nc2cccc(C#Cc3cccc4[nH]nc(N)c34)c2)c1	53
COc1cc(Cn2cc3c(c2)-c2onc(CN4CCOCC4)c2CC3)cc(OC)c1OC	99.7
Cc1ccc(NC(=O)c2ccc(CN3CCN(C)CC3)cc2)cc1Oc1ccc(-c2[nH]nc3ncnc(N)c23)cc1	89
COc1ccc(/C=C(\C#N)C(=O)N2c3ccccc3Sc3ccc(SC)cc32)cc1F	91.8
CC(=O)c1cc(C(=O)c2ccc(Br)cc2)n2cc(C)cc(C)c12	89.7
COc1ccccc1-n1cc(C#N)c(N)c1C(=O)c1ccc(C)cc1	90.6
c1ccc(C(c2nc3ncncc3[nH]2)N2CSc3nc4ncncc4n3C2)cc1 (stereo not given)	66.8
Cn1cc(-c2nc(N)nnc2-c2c[nH]c3ccc(Br)cc23)c2cc(Br)ccc21	61.3
CC1=NC2=NC(=O)/C(=C3/N=C(C)C=C(c4ccccc4)N3N)NN2C(c2ccccc2)=C1	103

----------
- Test system: SN12C renal
- assay_procedure: NCI-60 one-dose screen, 48 h (100 = growth as untreated, 0 = no growth, -100 = all killed)
- details: 10 µM unless noted
The panel holds about 83,000 compounds, 20% with a hit somewhere; the sample as a whole holds those more often.
Items are presented alongside their recorded growth.

molecule	experimental_target	u	growth
COc1ccc(N2C(=O)c3cc(Cl)ccc3NC2SCc2ccccc2)cc1 (centres undefined)	SN12C renal	%	91.5
CN1CCN(c2ccc(/C=N/Nc3nc4ccccc4c(=O)n3-c3ccccc3)cc2)CC1	SN12C renal	%	103
NS(=O)(=O)c1ccc(Nc2nc(N/N=C/CCc3ccccc3)nc(Nc3ccccc3)n2)cc1	SN12C renal	%	105
Cn1ccnc1C(=O)/C=C/c1ccc(CNC(=O)c2ccc(F)cc2)cc1	SN12C renal	%	20
O=S(=O)(NCCNc1nccc(-n2cnc3ccccc32)n1)c1ccc(Br)cc1	SN12C renal	%	91.5
CC1(C)[C@@H](O)CC[C@]2(C)[C@H]3CC[C@@H]4[C@H]5[C@H](C(=O)/C=C\c6ccncc6)CC[C@]5(O)CC[C@@]4(C)[C@]3(C)CC[C@@H]12	SN12C renal	%	75.1
CNC1CCc2c(sc(NC(=O)c3ccc(C(C)(C)C)cc3)c2C(N)=O)C1 (centres undefined)	SN12C renal	%	69.2
O=C(NCCN1CCCC1)c1ccc(-c2nc3ccc4[nH]ncc4c3c3c2CCCC3)cc1	SN12C renal	%	8.98
O=C(Nc1nc2ccc([N+](=O)[O-])cc2s1)Nc1ccccc1Br	SN12C renal	%	23.4

----------
- Test system: OVCAR-5 ovarian
- assay_procedure: NCI-60 one-dose screen, 48 h (100 = growth as untreated, 0 = no growth, -100 = all killed)
- details: 10 µM unless noted
About 83,000 compounds went through this panel and 20% of them were active in at least one assay; those are over-represented in the sample as a whole.
metric_name: growth (%)

compound	experimental_target	observed_result
C=C(C=O)[C@@H]1CC[C@]2(COC(C)=O)CC[C@]3(C)C(CC[C@@H]4[C@@]5(C)CC[C@H](OC(C)=O)C(C)(C)[C@@H]5CC[C@]43C)[C@@H]12 (some centres undefined)	OVCAR-5 ovarian	15.1
C#C[C@]1(O)CC[C@H]2[C@@H]3CC=C4c5sc(-c6ccc(C)cc6)nc5CC[C@]4(C)[C@H]3CC[C@@]21C	OVCAR-5 ovarian	93.5
COc1cc(OC)c(S(N)(=O)=O)cc1C(C)=O	OVCAR-5 ovarian	107
Cc1ccc(C(=O)NN2C(=O)/C(=C/C=C/c3ccco3)SC2=S)cc1	OVCAR-5 ovarian	100
CC[C@H](CO)Nc1ccc2ncc(C#Cc3cncc(C(=O)Nc4ccc(CN5CCN(C)CC5)c(C(F)(F)F)c4)c3)n2n1	OVCAR-5 ovarian	-38.1
CCO/C=N/C1=C(C#N)C(c2ccc(Cl)cc2)c2sc3c(C)cccc3c2O1 (centres undefined)	OVCAR-5 ovarian	27.9
ClC(Cl)c1nc(-c2ccco2)n2nc(-c3ccccc3)cc2n1	OVCAR-5 ovarian	2.76
CN(Cc1ccccc1)S(=O)(=O)/N=C1\NC(=O)NC1=C(Cl)Cl	OVCAR-5 ovarian	11.9
CCCCCc1ccc(S(=O)(=O)Nc2cccc(-c3csc(NCCN4CCN(C)CC4)n3)c2)cc1	OVCAR-5 ovarian	94.1

----------
- Test system: MCF7 breast
- assay_procedure: NCI-60 one-dose screen, 48 h
- details: 10 µM unless noted
The panel holds about 83,000 compounds, 20% with a hit somewhere; the sample as a whole holds those more often. The source made the active and inactive calls. Rule for the calls: active = growth percent below 10; inactive = the rest.
Outcomes: active, inactive

molecule	class_label
C=C(C=O)[C@@H]1CC[C@]2(CO)CC[C@]3(C)[C@H](CC[C@@H]4[C@@]5(C)CCCNC(C)(C)[C@@H]5CC[C@]43C)[C@@H]12	inactive
CC(C)(C)CC(C)(C)n1nnnc1C(Nc1nccs1)c1cc2cccc3ccc4cccc1c4c32 (centres undefined)	inactive
Clc1ccc(N/N=c2/oc3ccccc3cc2-c2cc3ccccc3[nH]2)cc1	inactive
Cn1cc(-c2nnc(N)nc2-c2c[nH]c3ccc(F)cc23)c2cc(F)ccc21	inactive
COc1cc2c(cc1OC)C(Sc1ccc(C)cc1)c1c(nc(N)c(C#N)c1N)O2 (centres undefined)	active
NC(N)=Nc1ccc(Oc2cccc(Nc3ccc(Br)c(C(F)(F)F)c3)c2)cc1	active
N#Cc1c(Nc2ccccc2)nn2c(-c3ccc([N+](=O)[O-])cc3)ccnc12	inactive
CNC(=O)c1c(NC(=O)c2cccc(C(F)(F)F)c2F)sc2c1CCC(=O)C2	active
CN(C)CCNC(=O)c1ccc(-c2nc3ccc4[nH]ncc4c3c3c2CCC3)cc1	active

----------
- System: OVCAR-4 ovarian
- assay_procedure: NCI-60 one-dose screen, 48 h (100 = growth as untreated, 0 = no growth, -100 = all killed)
- details: 10 µM unless noted
About 83,000 compounds went through this panel and 20% of them were active in at least one assay; those are over-represented in the sample as a whole. Activity calls are given as the source filed them. Rule for the calls: active = growth percent below 10; inactive = the rest.
Measured growth, listed per entry for reference.
metric_name: growth

compound	experimental_target	observed_result
N#C/C(=C\c1ccc(-c2ccc(Cl)cc2Cl)o1)c1ccc(F)cc1	OVCAR-4 ovarian	80.4% (inactive)
COc1ccc(NCc2cn(-c3ccc(C(=O)O)cc3)nc2-c2cc(C(F)(F)F)cc(C(F)(F)F)c2)cc1	OVCAR-4 ovarian	100% (inactive)
CCN1CCN(Cc2ccc(C(=O)Nc3ccc(C)c(Oc4ccc(-c5[nH]nc6ncnc(N)c56)cc4)c3)cc2C(F)(F)F)CC1	OVCAR-4 ovarian	87% (inactive)
Cc1cc(C(NC(=O)CCCCCNc2cccc3c2C(=O)N(C2CCC(=O)NC2=O)C3=O)c2ccc3c(c2)OC(F)(F)O3)c(O)c2ncccc12 (centres undefined)	OVCAR-4 ovarian	73.1% (inactive)
COc1ccc([C@@H]2c3[nH]c4ccccc4c3C[C@H]3C(=O)N(C4CCN(CC5CCCCC5)CC4)CC(=O)N23)c(OC)c1	OVCAR-4 ovarian	70.5% (inactive)
C#CCC#CCN1CCC[C@H]1C(=O)NCC(=O)OC	OVCAR-4 ovarian	97.3% (inactive)
O=C(Nc1ccc2c(ccn2Cc2ccccn2)c1)c1ccnnc1	OVCAR-4 ovarian	68.3% (inactive)
O=C(CN1CCN(c2cc(=O)n(-c3ccccc3)c3ccccc23)CC1)Nc1cccc(C(F)(F)F)c1	OVCAR-4 ovarian	19.9% (inactive)
Nn1c(N/N=C/c2nc3ccccc3s2)n[nH]c1=S	OVCAR-4 ovarian	85.8% (inactive)
CCOc1ccc(NC2=C(Cl)C(=O)c3nc(C)ccc3C2=O)cc1	OVCAR-4 ovarian	-97.5% (active)
C=CCOc1cccc(/C=C2\SC(=S)N(C3CC(=O)N(c4ccc(Br)cc4)C3=O)C2=O)c1 (centres undefined)	OVCAR-4 ovarian	109% (inactive)
COc1ccc2[nH]cc(-c3csc4nc(-c5ccccc5)cn34)c2c1	OVCAR-4 ovarian	56.5% (inactive)
Cn1cc(-c2nc(N)nnc2-c2c[nH]c3ccccc23)c2cc(Br)ccc21	OVCAR-4 ovarian	74.1% (inactive)
CCCC(=O)NC(c1cccnc1)c1cc(C(C)(C)C)c2cccnc2c1O (centres undefined)	OVCAR-4 ovarian	31.1% (inactive)
CCCn1cnc2c(c1=N)C(c1ccc(Cl)cc1)c1sc3c(C)cccc3c1O2 (centres undefined)	OVCAR-4 ovarian	89.2% (inactive)
O=[N+]([O-])c1cc(/C=N/Nc2nc(N/N=C/c3ccc(Cl)c([N+](=O)[O-])c3)nc(N3CCCCC3)n2)ccc1Cl	OVCAR-4 ovarian	86.9% (inactive)
N/C(=N\C(N)=N\c1nc2ccccc2s1)c1ccncc1Cl	OVCAR-4 ovarian	104% (inactive)
O=C(NNc1nc2cc(F)c(F)cc2n2c(CN3CC4CNCC4C3)ccc12)c1cnccn1 (centres undefined)	OVCAR-4 ovarian	22.8% (inactive)
COc1ccc(/C=C/C(=O)c2cccc(NC(=O)CSc3nc4ccccc4c(=O)n3-c3ccccc3)c2)cc1OC	OVCAR-4 ovarian	98.8% (inactive)
C#Cc1nc(C(C)=O)cs1	OVCAR-4 ovarian	105% (inactive)
O=C(Cn1c(-c2ccccc2)nc2cc(Cl)c(Cl)cc21)N=Nc1c(O)[nH]c2ccc(Cl)cc12	OVCAR-4 ovarian	77.9% (inactive)
COc1cc2nc(Cl)nc(Nc3cccc(C4=Nc5c(N)nc(N)nc5NC(c5ccccc5)C4)c3)c2cc1OC (centres undefined)	OVCAR-4 ovarian	96.7% (inactive)
O=C(CCn1cc[n+](CC(=O)c2ccc(-c3ccccc3)cc2)c1)Nc1cccc2cccnc12	OVCAR-4 ovarian	24.6% (inactive)
Cc1ccc(C2=NN(C)C(=O)C3(CCCC3)C2)cc1	OVCAR-4 ovarian	106% (inactive)
Brc1ccccc1/C=N/Nc1nc(N/N=C/c2ccccc2Br)nc(N2CCOCC2)n1	OVCAR-4 ovarian	96.2% (inactive)
NC(N)=Nc1ccc(Oc2cccc(NC(N)=Nc3ccc(Cl)c(C(F)(F)F)c3)c2)cc1	OVCAR-4 ovarian	62.4% (inactive)
COc1cc(-c2ccc3ncnc(NCc4ccccc4)c3c2)cnc1OC	OVCAR-4 ovarian	65.3% (inactive)
COc1ccc(/C=N/NC2=NC3C(S2)N(C)C(=O)N3C)cc1 (centres undefined)	OVCAR-4 ovarian	75.6% (inactive)
CCc1cccc(NC(=O)CNc2cc(S(=O)(=O)N(C)C)cc(C)c2C)c1	OVCAR-4 ovarian	56.3% (inactive)
O=C(Nc1nc2ccc([N+](=O)[O-])cc2s1)Nc1ccccc1Cl	OVCAR-4 ovarian	14% (inactive)
Oc1cccc2ccc(-c3nnc(SCc4ccc(O)c5ncccc45)o3)nc12	OVCAR-4 ovarian	20.5% (inactive)
Nc1ncc(-c2ccc(NS(=O)(=O)c3ccc(Cl)c(Cl)c3)cc2)[nH]1	OVCAR-4 ovarian	93.9% (inactive)
CCO/C=N/C1=C(C#N)C(c2ccc(F)cc2)c2sc3c(C)cccc3c2O1 (centres undefined)	OVCAR-4 ovarian	51% (inactive)
NS(=O)(=O)c1ccc(Nc2nc(N/N=C/c3ccccn3)nc(Nc3ccccc3)n2)cc1	OVCAR-4 ovarian	-20.3% (active)
Cn1cc(-c2cc(N)n3nc(-c4cn(C)c5ccccc45)cc3n2)c2ccccc21	OVCAR-4 ovarian	95% (inactive)
COc1ccc2c(c1)Oc1nc(N)c(C#N)c(N)c1C2Sc1ccc(C)cc1 (centres undefined)	OVCAR-4 ovarian	15.1% (inactive)
CC(=O)N1C(=S)NC(=O)C1CC(C)C (centres undefined)	OVCAR-4 ovarian	99.5% (inactive)
COc1cccc(N2CCN(c3ncnc4c3[nH]c3ccc(F)cc34)C[C@H]2C)c1	OVCAR-4 ovarian	28% (inactive)
COc1cc(-c2nc(SCCC(C)C)nc(NNC(=O)c3ccncc3)c2C#N)cc(OC)c1OC	OVCAR-4 ovarian	90.6% (inactive)
